Data credit: ChEMBL document CHEMBL5113479

// reported pIC50 for each item listed
- Test system: MCF7
- PROCEDURE TEXT: Antiproliferative activity against human MCF7 cells assessed as inhibition of cell growth measured after 72 hrs by CCK8 assay
- Assay type: functional, cell-based
- CONDITIONS: MCF7, 72 h
pIC50: −log10 of the molar value.
QUANTITY: pIC50

1. CN(C)c1cc(NCC(=O)Nc2ccc(Cl)cc2)c2c(=O)n(C)c(=O)n(C)c2n1; 4.31
2. Cn1c(=O)c2c(NCC(=O)Nc3ccc(OC(F)(F)F)cc3)cc(N3CCCC3)nc2n(C)c1=O; 4.44
3. CN(C)c1cc(NCC(=O)Nc2ccc(F)cc2)c2c(=O)n(C)c(=O)n(C)c2n1; 4.32
4. CN1CCN(c2cc(NCC(=O)Nc3cccc(Cl)c3)c3c(=O)n(C)c(=O)n(C)c3n2)CC1; 5.50
5. Cn1c(=O)c2c(Nc3ccc(OC(F)(F)F)cc3)cc(=O)n(C)c2n(C)c1=O; 4.30
6. Cn1c(=O)c2c(NCC(=O)Nc3ccc(C(F)(F)F)cc3)cc(N3CCOCC3)nc2n(C)c1=O; 4.33
